Value source: ChEMBL document CHEMBL1135508

# measurement_notes: T max after oral administration at the dose 2/2 (IV/Po/mg/kg)
# Format: ADME, organism-based
# stated_conditions: cercopithecidae, in vivo, 2 mg/kg
readout_type: Tmax (h)
Express it in h; write the number only.

Incoming: What Tmax value was documented for this compound, CCO/N=C(\c1ccc(Br)cc1)C1CCN(C2(C)CCN(C(=O)c3c(C)cc[n+]([O-])c3C)CC2)CC1 [ANCRIVIROC] ?
Outgoing: 2

* * *

# measurement_notes: Percent of bioavailability after oral administration at the dose 2/2 (IV/Po/mg/kg)
# Format: ADME, organism-based
# stated_conditions: cercopithecidae, in vivo, 2 mg/kg, read-out: Bioavailabiility
readout_type: bioavailability (%)
Express it in %; write the number only.

Incoming: What bioavailability value was documented for this compound, `CCO/N=C(\c1ccc(Br)cc1)C1CCN(C2(C)CCN(C(=O)c3c(C)cc[n+]([O-])c3C)CC2)CC1` ?
Outgoing: 52
